Attribution: patent US20210130436A1

target: T1, human CTLA4 (full-length, expressed on CHO cells) (human, UniProt P16410 36-223); experiment: flow cytometry MFI at 33.3 nM relative to WT CD80 ECD-Fc (R&D), CHO/huCTLA4 cells
T1 construct: also called huCTLA4
T1 sequence (P16410 36-223): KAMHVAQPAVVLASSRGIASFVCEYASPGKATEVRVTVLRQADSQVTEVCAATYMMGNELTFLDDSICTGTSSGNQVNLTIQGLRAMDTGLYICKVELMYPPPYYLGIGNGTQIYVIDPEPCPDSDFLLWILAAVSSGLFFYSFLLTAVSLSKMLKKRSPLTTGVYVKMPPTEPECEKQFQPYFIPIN
READOUT NAME: Fold change to WT CD80 (fold)

Sample records with Fold change to WT CD80:
variant CD80 IgV-Fc A26E/Q33L/E35D/M47L/L85Q (Fc fusion, not shown: a dimerising Fc or GST) VIHVTKEVKEVATLSCGHNVSVEELEQTRIYWLKDKKMVLTMMSGDLNIWPEYKNRTIFDITNNLSIVILALRPSDEGTYECVVQKYEKDAFKREHLAEVTLSVKAD :: 0.01
variant CD80 IgV-Fc H18Y/A26E/Q33L/E35D/M47L/L85Q (Fc fusion, not shown: a dimerising Fc or GST) VIHVTKEVKEVATLSCGYNVSVEELEQTRIYWLKDKKMVLTMMSGDLNIWPEYKNRTIFDITNNLSIVILALRPSDEGTYECVVQKYEKDAFKREHLAEVTLSVKAD :: 0.01

A = variant CD80 IgV-Fc A26E/Q33L/E35D/M47L (Fc fusion, not shown: a dimerising Fc or GST) VIHVTKEVKEVATLSCGHNVSVEELEQTRIYWLKDKKMVLTMMSGDLNIWPEYKNRTIFDITNNLSIVILALRPSDEGTYECVVLKYEKDAFKREHLAEVTLSVKAD
B = variant CD80 IgV-Fc E35D/M47I/E77A/L85Q/R94W (Fc fusion, not shown: a dimerising Fc or GST) VIHVTKEVKEVATLSCGHNVSVEELAQTRIYWQKDKKMVLTMMSGDINIWPEYKNRTIFDITNNLSIVILALRPSDAGTYECVVQKYEKDAFKWEHLAEVTLSVKAD
*Q* When the recorded Fold change to WT CD80 values are compared, which is smaller: that of A or that of B ? Indicate your choice by writing its label.
*A* A
(A: 0.01 fold, B: 1.38 fold)
